Molecular target: recombinant human ATase (Homo sapiens)
Construct: made in house
Assay: In vitro ATase inactivation assay (incubation with inactivators and ATase assay)
Type: biochemical
Conditions: Table 4; 1 hour incubation with inactivator at 37° C.; read-out: I50

COMPOUND: COc1ccccc1COc1nc(N)nc2[nH]cnc12 [B.4231, O^6-(2-methoxybenzyl)guanine, reference compound]
IC50, µM: 60

* * *

Assay: Toxicity of inactivators in combination with BCNU in DBA2 mice
Assay type: in vivo, mouse
Conditions: mouse, in vivo, ip, 60 mg/kg, inactivator 60 mg/kg + 10 mg/kg BCNU, single i.p. dose; read-out: % SURVIVAL AFTER 14 DAYS
Excerpt: All agents were given as a single i.p. dose
PROPERTY: survival at 336 h

COMPOUND: Nc1nc(OCc2ccccc2)c2nc[nH]c2n1 [O^6 -benzylguanine, reference compound]
VALUE_OBSERVED: 50%

* * *

Biological target: ATase in WiDr cells (Homo sapiens, UniProt P16455)
Construct: WiDr cells are a human colon carcinoma cell line; endogenous in cells
Assay: Inactivation of ATase activity in mammalian cells: WiDr
Conditions: read-out: Inactivation of ATase in Mammalian Cells I50

MOL: Nc1nc(OCc2cccs2)c2nc[nH]c2n1
UNITS_TEXT: nM
IC50: 20

* * *

Molecular target: recombinant human ATase (Homo sapiens, UniProt P16455)
Construct: made in house
Assay: In vitro ATase inactivation assay (incubation with inactivators and ATase assay)
Type: biochemical
pIC50: −log10 of the molar value.

COMPOUND: Nc1nc(OCc2cc(Br)cs2)c2nc[nH]c2n1 [B.4280, O^6-(4-bromothenyl)guanine]
SYSTEM_TESTED: recombinant human ATase (Homo sapiens, UniProt P16455)
pIC50: 8.47

* * *

Test: Toxicity of inactivators in combination with BCNU in DBA2 mice
Assay type: in vivo, mouse
Settings: mouse, in vivo, ip, 60 mg/kg, inactivator 60 mg/kg + 20 mg/kg BCNU, single i.p. dose; read-out: % SURVIVAL AFTER 14 DAYS

MOLECULE: Nc1nc(OCc2ccccc2)c2nc[nH]c2n1 [O^6 -benzylguanine, reference compound]
survival at 336 h / %: 33

* * *

Target: recombinant human ATase (Homo sapiens)
Construct: made in house
Sequence (P16455 1-207): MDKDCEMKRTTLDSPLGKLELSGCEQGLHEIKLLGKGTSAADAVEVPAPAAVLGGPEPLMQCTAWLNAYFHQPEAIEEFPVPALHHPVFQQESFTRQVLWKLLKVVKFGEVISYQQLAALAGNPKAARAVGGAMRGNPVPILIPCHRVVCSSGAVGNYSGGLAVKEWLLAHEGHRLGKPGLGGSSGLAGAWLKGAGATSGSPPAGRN
Experiment: In vitro ATase inactivation assay (incubation with inactivators and ATase assay)
Type: biochemical
Conditions: Table 9; pure recombinant ATase in vitro; read-out: I50 (μm)
Examples of molecules with documented IC50 follow.

MOLECULE: Nc1nc(OCc2ccc(Cl)s2)c2nc[nH]c2n1 [B.4281, O^6-(5-chlorothenyl)guanine]
IC50, nM: 4

MOLECULE: Nc1nc(OCc2ccc(Br)o2)c2nc[nH]c2n1 [B.4336, O^6-(5-bromofurfuryl)guanine]
IC50, nM: 20

MOLECULE: Nc1nc(OCc2cc(Cl)c(Cl)s2)c2nc[nH]c2n1 [B.4318, O^6-(4,5-dichlorothenyl)guanine]
IC50, nM: 15

MOLECULE: Nc1nc(OCc2ccnc(Cl)c2)c2nc[nH]c2n1 [B.4321, O^6-(2-chloro-4-picolyl)guanine]
IC50, nM: 40

* * *

Assay: Sensitivity of mammalian cells to the inactivators alone: XP cells
Type: cell-based, human
Settings: human, xp cells; FIG. 6; read-out: dose required for growth inhibition relative to that required for ATase inactivation

MOL: Nc1nc(OCc2ccco2)c2nc[nH]c2n1
selectivity ratio: ≥ 100
//
MOL: Nc1nc(OCc2cccs2)c2nc[nH]c2n1
selectivity ratio: ≥ 100

* * *

Molecular target: recombinant human ATase (Homo sapiens, UniProt P16455)
Construct: made in house
Assay: In vitro ATase inactivation assay (incubation with inactivators and ATase assay)
Format: biochemical
Details: Table 9; pure recombinant ATase in vitro; read-out: I50 (μm)
Examples of molecules with documented log10 of IC50 follow.
PROPERTY: log10 of IC50 (log10 of the value in nM)

MOLECULE: N#Cc1csc(COc2nc(N)nc3[nH]cnc23)c1
log10 of IC50: 0.45
//
MOLECULE: N#Cc1ccc(COc2nc(N)nc3[nH]cnc23)s1
log10 of IC50: 0.70
//
MOLECULE: Nc1nc(OCc2cc(Cl)cs2)c2nc[nH]c2n1
log10 of IC50: 0.90
//
MOLECULE: COc1csc(COc2nc(N)nc3[nH]cnc23)c1
log10 of IC50: 1.22
//
MOLECULE: Nc1nc(OCc2csc(Br)c2)c2nc[nH]c2n1
log10 of IC50: 0.81
//
MOLECULE: C[S+]([O-])c1ccc(COc2nc(N)nc3[nH]cnc23)s1 (stereo not drawn)
log10 of IC50: 1.48

* * *

Assay: Toxicity of inactivators in combination with BCNU in DBA2 mice
Format: in vivo, mouse
Conditions: mouse, in vivo, ip, 60 mg/kg, inactivator 60 mg/kg + 15 mg/kg BCNU (footnote *), single i.p. dose; read-out: % SURVIVAL AFTER 14 DAYS
From the text: All agents were given as a single i.p. dose

COMPOUND: Nc1nc(OCc2ccccc2)c2nc[nH]c2n1 [O^6 -benzylguanine, reference compound]
survival at 336 h [%]: 0
